# Target: Replicative DNA helicase DnaB (Mycobacterium tuberculosis, UniProt P9WMR3)
# Sequence (P9WMR3 1-399, added parts left off): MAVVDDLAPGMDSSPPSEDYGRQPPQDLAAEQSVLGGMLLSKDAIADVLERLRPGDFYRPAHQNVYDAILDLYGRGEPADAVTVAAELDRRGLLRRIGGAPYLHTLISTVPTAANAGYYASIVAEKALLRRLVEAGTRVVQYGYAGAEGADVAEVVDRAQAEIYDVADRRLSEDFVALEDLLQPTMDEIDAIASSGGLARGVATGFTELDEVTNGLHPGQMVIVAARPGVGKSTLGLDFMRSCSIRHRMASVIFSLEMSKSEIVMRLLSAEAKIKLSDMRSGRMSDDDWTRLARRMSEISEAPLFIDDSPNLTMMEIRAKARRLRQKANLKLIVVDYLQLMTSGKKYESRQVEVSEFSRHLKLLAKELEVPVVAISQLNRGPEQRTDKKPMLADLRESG
# Test details: DnaB intein splicing inhibitors, dose response, biochemical, cell-free fluorescence (AID 449749)
# Assay type: functional
The source made the active and inactive calls.
AC50 reference

In the examples that follow, each entry is paired with its recorded AC50.
>>> result("Nc1ccc(N)c(C(=O)O)c1")
"6.81 µM (active)"
>>> result("COc1ccc(C=C(c2nc3ccccc3s2)c2nc3ccccc3s2)cc1O")
"> 380 µM (inactive)"
>>> result("O=C1C(Cl)=C(N2CCOCC2)C(=O)N1c1cccc(C(F)(F)F)c1")
"1.16 µM (inconclusive)"

// returns reported AC50 for input Nc1ccc2cn[nH]c2c1 4.45 µM (active)

Entry CCOC(=O)C(Nc1ccc2ccccc2c1)C(=O)OCC : reported AC50 = ? 5.7 µM (active)

Name the reported AC50 value associated with the molecule Nc1ccc2[nH]ncc2c1 324 µM (active)

Quick check: AC50 of CC(=O)Nc1cccc(OC(=O)COc2ccc(Br)cc2)c1 ? 11 µM (active)

Fill blank: measured AC50 of the molecule Cc1nc2c(=O)n(C)c(=O)nc-2n(C)n1 is ____. 0.0978 µM (active)

Return reported AC50; argument: O=C(CCl)Nc1cn(-c2ccccc2)nc1-c1ccccc1 13.1 µM (active)

Item Nc1scc2c(C(=O)N/N=C/c3ccc(Cl)cc3)nn(-c3ccccc3)c(=O)c12 has what recorded AC50? 7.02 µM (active)

I have this molecule here, Oc1nc(Nc2ccccc2Cl)cc2ccccc12 , and I need its recorded AC50. 9.33 µM (active)

// query AC50 value for entry Cc1ccccc1N(Cc1cc(O)nc2ccccc12)C(=O)CCl 50.5 µM (active)

Form field: reported AC50 of CCOC(=O)N1CCC2(CC1)C(C#N)=C(N)Oc1[nH]nc(C)c12 8.2 µM (active)

# query: AC50 of entry O=C1/C(=N\S(=O)(=O)c2ccc([N+](=O)[O-])cc2)C(Cl)=C(O)c2ccccc21 6.49 µM (active)

* * *

# Target: Carboxy-terminal domain RNA polymerase II polypeptide A small phosphatase 1 (Homo sapiens, UniProt Q9GZU7)
# Sequence (Q9GZU7 whole entry, the tested form may be a part): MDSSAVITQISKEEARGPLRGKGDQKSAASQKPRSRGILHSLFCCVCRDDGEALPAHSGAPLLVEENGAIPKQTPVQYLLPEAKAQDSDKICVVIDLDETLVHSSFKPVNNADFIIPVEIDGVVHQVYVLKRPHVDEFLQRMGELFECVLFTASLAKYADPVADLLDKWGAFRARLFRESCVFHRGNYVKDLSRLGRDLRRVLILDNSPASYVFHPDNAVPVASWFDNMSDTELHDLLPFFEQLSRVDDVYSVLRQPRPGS
# Test details: CTDSP1 inhibitors, concentration-response, biochemical, absorbance readout, ultra-high-throughput screen actives (AID 540297)
# Type: functional
Active and inactive are the calls of the source.
Observation type: IC50

Here is how some molecules turned out for IC50.
>>> result("Cc1ncc([N+](=O)[O-])n1CCOC(=O)c1cc(Cl)cc(Cl)c1N")
"6.77 µM (active)"
>>> result("COc1ccc(OCC(=O)NNC(=O)c2ccc(-c3ccccc3)cc2)cc1")
"7.77 µM (active)"

Can you share its IC50? I mean this molecule: COc1cccc(N2[C@@H](CC(=O)O)c3ccc(/C=C/C(=O)O)cc3S2(=O)=O)c1 2.88 µM (active)

Could you tell me which IC50 is on file for CCc1nnc(NC(=O)c2cc(-c3ccco3)nc3ccccc23)s1 ? 4.01 µM (active)

Value lookup for IC50; key = O=C(N/N=C/c1ccc(Cl)cc1)c1cc2c(s1)-c1ccccc1CC2 20 µM (active)

Return reported IC50; argument: O=C1Nc2ccc(S(=O)(=O)NCc3ccco3)c3cccc1c23 10.8 µM (active)

Give its IC50 value. Item: COc1ccc(NC(=O)c2cc3c(COC(C)=O)cnc(C)c3o/c2=N\c2cccc(C(=O)O)c2)c(OC)c1 0.737 µM (active)

Record request: IC50 value, item COc1ccccc1C(=O)Nc1c2c(nn1-c1cccc(C)c1C)CS(=O)(=O)C2 10.1 µM (active)

Please look up its IC50: Cc1ccc(NC(=O)CN2C(=O)CSc3ccc(S(=O)(=O)N4CCCCC4)cc32)cc1 4.3 µM (active)

For the molecule shown here, COc1ccc(C(CC(=O)N2CCCC(C)C2)c2c(OC)cc(OC)c3c(-c4ccccc4)cc(=O)oc23)cc1 (configuration not stated) , give the reported IC50. 7.99 µM (active)

Quick one: IC50 of O=C(N/N=C/c1ccc(-c2cccc([N+](=O)[O-])c2)o1)c1ccccc1O ? 3.68 µM (active)

I am curious: what IC50 value has been reported for O=C(NNC(=O)c1ccc(-c2ccccc2)cc1)c1ccccc1 ? 11.2 µM (active)

Data provenance is ChEMBL document CHEMBL1201862.
